Source: PubChem BioAssay AID1347417

ASSAY EXPLANATION: qHTS Primary assay for Inhibitors of Plasmodium falciparum Dd2 growth in vitro; further: nearly all actives have a fitted effect of over 65% in size
CONDITION PARAMETERS: P. falciparum Dd2 growth, SYBR Green, 72 h; series mostly up to 28.9 µM
The whole screen tested about 120,000 compounds, of which about 5,300 (4.4%) were called active. Roughly 22% stayed inconclusive and do not appear here. The call rests on the fitted dose curve; in most records, active means well fitted inhibition curve with a large enough effect; inconclusive means small, poorly fitted or top-dose-only effect; inactive means no such curve, though single readings can be large or run the other way. The sample holds actives, similar compounds and a random draw of the others, so the mix is not that of the screen.
API: response.call in true (1) (active), false (0) (inactive)

Example results:
* COc1ccccc1CCC(=O)N1CCC[C@H]1c1nc(-c2ccccc2)no1 | false (0)
* Cc1nc(N2CCC(NC(=O)c3cnccn3)CC2)cc(C(F)(F)F)n1 | false (0)
* O=c1[nH]c(C2CCCN(Cc3ccccn3)C2)nn1-c1ccc(Cl)cc1 (centres undefined) | true (1)
* Cn1ncc(N2CCC(C(=O)N3CC=C(c4ccccc4)CC3)C2)cc1=O (centres undefined) | false (0)

Prompt: Given O=C1Nc2ccccc2C12CCN([S+](=O)([O-])c1cccc(C(F)(F)F)c1)C2 (centres undefined) , state the outcome it received in this test.
Completion: false (0)

Prompt: Given "O=Cc1cccc(N2CCN(C(=O)N3CCCC3)CC2=O)c1" , state the outcome it received in this test.
Completion: false (0)

Prompt: Given "O=C1[C@@H]2C[C@@H](O)CN2C2(CN(Cc3ccc(OC(F)(F)F)cc3)C2)C(=O)N1Cc1ccccc1Cl" , state the outcome it received in this test.
Completion: false (0)

Prompt: Given O=C(C1CCCC1)N1CC2(CCCN(C3CCCCC3)C2)Cc2ccccc21 (centres undefined) , state the outcome it received in this test.
Completion: true (1)

Prompt: Given "COc1ccc(CN2CCC3(CC2)Cc2ccccc2CNC3=O)cn1" , state the outcome it received in this test.
Completion: false (0)

Prompt: Given "NC(=O)Cn1ccc2cc(OCC3CCN(c4cnccn4)CC3)cnc21" , state the outcome it received in this test.
Completion: false (0)

Prompt: Given O=C(NCc1ccco1)C1CCCN(c2cnn(Cc3ccccc3)c(=O)c2)C1 (centres undefined) , state the outcome it received in this test.
Completion: false (0)

Prompt: Given "COCCn1cc2c3c(cccc31)CN(C(=O)c1c(F)cccc1Cl)CC2" , state the outcome it received in this test.
Completion: false (0)
